molecular target: Aminopeptidase N (Plasmodium falciparum (isolate 3D7)); experiment: malaria alanyl aminopeptidase activity blockers – biochemical, fluorogenic H-Leu-NHMec substrate, 1536-well (AID 1445); conditions: recombinant M1AAP, H-Leu-NHMec fluorogenic kinetic assay; at 30 µM, hits give high values unless noted;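 further: plate controls were DMSO full reaction for no effect and no enzyme background for full effect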
Hit rate of the full screen: of about 220,000 compounds, about 910 (0.41%) were called active. The list comes from a sample in which actives are over-represented; it also holds close analogues and randomly drawn compounds. Measured potencies and affinities stand elsewhere.

{"COMPOUND": "Cc1[nH][nH]c(=O)c1C(c1ccc([N+](=O)[O-])cc1)c1c(C)[nH][nH]c1=O", "UNIT": "%", "inhibition": -16.2}
{"COMPOUND": "COc1ccc(OC)c(C2=NOC(C(=O)Nc3cccnc3)C2)c1 (stereo unspecified)", "UNIT": "%", "inhibition": 7.85}
{"COMPOUND": "Clc1ccc(-c2nn3cnnc3s2)c(Cl)c1", "UNIT": "%", "inhibition": 0.7}
{"COMPOUND": "COc1ccc(NC(=O)Nc2cccnc2)c(OC)c1", "UNIT": "%", "inhibition": 2.93}
{"COMPOUND": "Cc1[nH][nH]c(=O)c1C(c1ccc(O)c([N+](=O)[O-])c1)c1c(C)[nH][nH]c1=O", "UNIT": "%", "inhibition": 14}
{"COMPOUND": "CC(=O)Nc1ccc(-c2csc(N/N=C(/C)c3ccccc3)n2)cc1", "UNIT": "%", "inhibition": 11.9}
{"COMPOUND": "CC(=O)Nc1nc(C(=O)O)cs1", "UNIT": "%", "inhibition": -0.08}
{"COMPOUND": "CC(=O)Nc1ccc(/C=N/NC(=O)c2cc3cc(C)ccc3nc2C)cc1", "UNIT": "%", "inhibition": 2.63}
{"COMPOUND": "C/C(=N\\NC(=O)CCn1nnc2ccccc21)c1cccs1", "UNIT": "%", "inhibition": 0}
{"COMPOUND": "COCC(=O)N(Cc1cc2cc(OC)ccc2[nH]c1=O)c1ccccc1", "UNIT": "%", "inhibition": 7}
{"COMPOUND": "CC(=O)Nc1ccc(S(=O)(=O)N2CCC(NC(=O)C(Cc3cccn3C)NC(C)=O)CC2)cc1 (stereo unspecified)", "UNIT": "%", "inhibition": -2.05}
